Can you tell me normalized RNA/DNA level without ligand (log10) for the items I'm about to list?
B1: library; a variant is named by its letters at N, in order (parent)
chain: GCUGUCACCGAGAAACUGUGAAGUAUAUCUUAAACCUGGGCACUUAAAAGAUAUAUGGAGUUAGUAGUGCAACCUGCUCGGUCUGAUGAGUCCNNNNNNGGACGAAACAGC

- Variants of: B1
- test.protocol: normalized RNA/DNA level without ligand (relative to sTRSVctl = 100) (log10 (% of sTRSVctl)); HEK293T; ligand: cyclic di-GMP (c-di-GMP-II aptamer); higher = less ribozyme self-cleavage, higher mRNA level
- test.parameters: reporter: mCherry (pCS4076), ligand present: no
// no unit string in output, number only

Input line: Please give the measured normalized RNA/DNA level without ligand (log10) for this variant: CGAUAA
Output line: 1.22

Input line: Next variant: GUGUGC
Output line: 1.4

Input line: What would you report for AACGCC ?
Output line: 1.75

Input line: CCUUUA , same question.
Output line: 1.38

Input line: Now the variant GCUUCA
Output line: 1.67

Input line: And the next one, UGAUUA ?
Output line: 1.7

Input line: Now consider AACUCA .
Output line: 1.65

Input line: Same thing, different variant: AACAUA
Output line: 1.52

Input line: Consider next the variant UGCAUU in the same way.
Output line: 1.71

Input line: // repeat for GCGGGA and report
Output line: 1.62

Input line: Check GCGACU too.
Output line: 1.57

Input line: Repeat with ACGGUG
Output line: 1.6

Input line: Lookup UGUAAC
Output line: 1.72

Input line: Then what about the variant GCCGUG ?
Output line: 1.6

Input line: Also check GAGGCG
Output line: 1.82

Input line: Now consider GCCAAA .
Output line: 1.49

Input line: Try CCCGGA next.
Output line: 1.48

Input line: Here is the next variant: UCGUCG
Output line: 1.74

Input line: Check CGGCUU too.
Output line: 1.5

Input line: Request: GACGUG
Output line: 1.71

Input line: Entry to check: CAGAGA
Output line: 1.41

Input line: Similarly, CUAGUC ?
Output line: 1.75

Input line: GGUAUA , same question.
Output line: 1.5

Input line: # iterate: UUCGCC
Output line: 1.7

Input line: What would you report for ACACAA ?
Output line: 1.41

Input line: Also need CCGCAC , thanks.
Output line: 1.68

Input line: Try this variant too: GCCUCU
Output line: 1.72

Input line: Repeat for the following variant: AGCCUC
Output line: 1.77

Input line: // same read-out, input: ACUAUG
Output line: 1.59

Input line: Moving on to the next variant: CUUAGU
Output line: 1.78

Input line: Field entry: AUUUUA
Output line: 1.62

Input line: And the next one, CCGUUU ?
Output line: 1.53

Input line: Now this one: UAGCAA
Output line: 1.72

Input line: Note, next up: GGGUUC
Output line: 1.79

Input line: And CAAUCA ?
Output line: 1.4

Input line: Entry to check: CAAGCA
Output line: 1.63

Input line: Try the variant GCUACC
Output line: 1.67

Input line: What about AUCGUA ?
Output line: 1.51

Input line: Next variant up: CUCGAA
Output line: 1.41

Input line: Next: CCAUAA
Output line: 1.44

Input line: Okay, and UAACGG ?
Output line: 1.67

Input line: Thanks! And GAUUAC ?
Output line: 1.72

Input line: Same question for AGGCUA please.
Output line: 1.51

Input line: Okay, and UUGUUG ?
Output line: 1.67

Input line: // same read-out, input: CCAUUG
Output line: 1.28

Input line: Same question for UGUUGA please.
Output line: 1.6

Input line: Same question, CGUCUG this time
Output line: 1.73

Input line: Next: ACCUCG
Output line: 1.73

Input line: Let us now turn to ACAUGU
Output line: 1.54

Input line: Another variant to check: ACUAGU
Output line: 1.67

Input line: Try AAAACA next.
Output line: 1.51

Input line: Then this variant: AGGGCG
Output line: 1.78

Input line: Then what about the variant GUCAAC ?
Output line: 1.65

Input line: What about CCCAUU ?
Output line: 1.64

Input line: Consider next the variant CCUGAU in the same way.
Output line: 1.6

Input line: Try this variant too: GAUCUC
Output line: 1.75

Input line: Try UUAUCA next.
Output line: 1.76

Input line: Likewise for CAGCCU ?
Output line: 1.59

Input line: Input CGCCGA
Output line: 1.6

Input line: Next record, please: UUUACC
Output line: 1.75

Input line: Another variant: CCGGUA
Output line: 1.36

Input line: Now consider UUAUUC .
Output line: 1.76

Input line: Same for AUAAAU
Output line: 1.59

Input line: And what about the variant CACUCU ?
Output line: 1.6

Input line: And what about the variant AGUGGU ?
Output line: 1.56

Input line: Moving on to the next variant: GACGAG
Output line: 1.56

Input line: # iterate: CACGAC
Output line: 1.67

Input line: Same lookup for GUAUCA , please.
Output line: 1.62

Input line: How about this variant: CAGGAG
Output line: 1.64

Input line: Also GCGCUG , if possible.
Output line: 1.77

Input line: Further, for CUUACG ?
Output line: 1.82

Input line: And for GUCAUU ?
Output line: 1.66

Input line: Can you check AGGUUU next?
Output line: 1.7

Input line: Also CGAACA , if possible.
Output line: 1.58

Input line: Try this variant next: UCUCCG
Output line: 1.84

Input line: Request: GCAGAC
Output line: 1.42

Input line: And what about the variant UACCAA ?
Output line: 1.66

Input line: Another variant to check: UCGGCA
Output line: 1.65

Input line: And for ACGAUC ?
Output line: 1.56

Input line: Another variant to check: CAGUAC
Output line: 1.6

Input line: For GGUGGC then?
Output line: 1.68

Input line: Here is the next variant: CCUCCU
Output line: 1.68

Input line: Same thing, different variant: GCAGGA
Output line: 1.4

Input line: Another variant to check: GAUCCU
Output line: 1.7

Input line: How about this variant: UGUCCC
Output line: 1.81

Input line: // same read-out, input: AAACGA
Output line: 1.39

Input line: Item: CUCGGU
Output line: 1.79

Input line: Next up: CCGUCG
Output line: 1.68

Input line: For UGUAGA then?
Output line: 1.67

Input line: What do you get for UAGUGC ?
Output line: 1.69

Input line: CGUUUU ?
Output line: 1.46
